Target: human ether-à-go-go-related gene (hERG) potassium channel (human, UniProt Q12809);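 note: peak tail current of the secondary pulse compared with the same well before compound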
Sequence (Q12809 whole entry, looked up): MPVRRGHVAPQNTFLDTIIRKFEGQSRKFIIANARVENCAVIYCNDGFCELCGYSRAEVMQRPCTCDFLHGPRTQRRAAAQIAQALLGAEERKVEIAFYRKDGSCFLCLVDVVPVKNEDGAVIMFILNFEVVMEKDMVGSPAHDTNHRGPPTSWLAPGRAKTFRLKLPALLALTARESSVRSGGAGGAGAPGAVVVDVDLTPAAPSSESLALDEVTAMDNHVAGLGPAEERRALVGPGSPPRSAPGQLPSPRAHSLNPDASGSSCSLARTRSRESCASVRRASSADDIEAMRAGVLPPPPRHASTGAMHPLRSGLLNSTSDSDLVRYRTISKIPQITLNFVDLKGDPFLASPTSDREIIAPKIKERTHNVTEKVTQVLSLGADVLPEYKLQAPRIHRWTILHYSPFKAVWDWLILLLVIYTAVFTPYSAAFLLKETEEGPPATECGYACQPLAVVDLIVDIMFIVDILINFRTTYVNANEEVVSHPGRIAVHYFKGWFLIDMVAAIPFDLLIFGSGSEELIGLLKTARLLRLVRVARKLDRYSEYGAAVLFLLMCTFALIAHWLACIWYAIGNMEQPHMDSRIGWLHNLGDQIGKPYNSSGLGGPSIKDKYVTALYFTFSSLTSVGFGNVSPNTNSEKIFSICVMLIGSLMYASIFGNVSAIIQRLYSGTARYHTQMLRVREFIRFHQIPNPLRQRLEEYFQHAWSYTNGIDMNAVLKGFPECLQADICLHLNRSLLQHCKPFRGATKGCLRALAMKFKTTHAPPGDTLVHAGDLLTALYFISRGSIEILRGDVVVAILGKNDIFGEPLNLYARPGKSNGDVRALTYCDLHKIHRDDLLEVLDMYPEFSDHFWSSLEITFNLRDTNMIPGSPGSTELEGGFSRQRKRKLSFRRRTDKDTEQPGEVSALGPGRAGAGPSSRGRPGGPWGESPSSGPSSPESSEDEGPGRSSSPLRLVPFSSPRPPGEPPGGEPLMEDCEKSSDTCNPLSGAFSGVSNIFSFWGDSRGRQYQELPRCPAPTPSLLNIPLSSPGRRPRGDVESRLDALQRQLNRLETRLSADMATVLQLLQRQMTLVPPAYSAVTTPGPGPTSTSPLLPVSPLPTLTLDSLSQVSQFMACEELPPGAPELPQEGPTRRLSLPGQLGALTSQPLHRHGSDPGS
Assay: primary screen, population patch clamp on CHO cells stably expressing hERG; higher = less effect of the substance
Out of some 310,000 compounds screened, about 14,000 (4.5%) showed an effect of 50% or more. The effect is printed as a negative number. What follows is part of a selection rich in strong results, with near analogues and random picks from the rest.
recorded metric: hERG current change (%, negative = inhibition) at 10uM
Enter the number, and then the unit.

These recorded examples may help you get a feel for the data.
Value of measured hERG current change (%, negative = inhibition) at 10uM for the entry CC(=O)N1c2ccccc2NC2=C(C(=O)CCC2)C1c1cccnc1 (stereo not shown) : 4.51%

Value of measured hERG current change (%, negative = inhibition) at 10uM for the entry CCCn1c2c(c(=N)c3c1CCC3)CCC2.I : 7.05%

Value of measured hERG current change (%, negative = inhibition) at 10uM for the entry O=C(NCC(c1cccs1)N1CCOCC1)c1cc([N+](=O)[O-])ccc1Cl (stereo not shown) : -20.5%

Next:
Value of measured hERG current change (%, negative = inhibition) at 10uM for the entry CCOc1ccc(C(=O)Nc2ccccc2C(=O)O)cc1 : 8.2%

Value of measured hERG current change (%, negative = inhibition) at 10uM for the entry O=c1[nH]cc([N+](=O)[O-])cc1Br : 2.05%

Value of measured hERG current change (%, negative = inhibition) at 10uM for the entry Cl.Clc1ccc(OCCCCN2CCc3ccccc3C2)cc1 : -68.1%

Value of measured hERG current change (%, negative = inhibition) at 10uM for the entry O=C(COc1ccc(S(=O)(=O)N2CCOCC2)cc1)N1CCc2ccccc2C1 : -55.9%

Value of measured hERG current change (%, negative = inhibition) at 10uM for the entry O=C(CCCOc1ccccc1)N1CCc2ccccc2C1 : 0.877%

Value of measured hERG current change (%, negative = inhibition) at 10uM for the entry O=C(NC(=S)N1CCOCC1)c1ccc(F)cc1 : 24.4%

Value of measured hERG current change (%, negative = inhibition) at 10uM for the entry CCOC(=O)Cn1c2c(c(=N)c3c1CCC3)CCC2.Cl : 8.34%

---

Biological target: human ether-à-go-go-related gene (hERG) potassium channel (human, UniProt Q12809);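 note: peak tail current of the secondary pulse compared with the same well before compound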
Assay: primary screen, population patch clamp on CHO cells stably expressing hERG; higher = less effect of the substance
The campaign covered roughly 310,000 compounds. About 14,000 (4.5%) showed an effect of 50% or more. The effect is printed as a negative number. For the sample, strong results were picked, then their nearest neighbours and some compounds at random.
# maps each entry to its hERG current change (%, negative = inhibition) at 10uM
Kindly provide the numeric value in % only, without the unit symbol.

These recorded examples may help you get a feel for the data.
Value of measured hERG current change (%, negative = inhibition) at 10uM for the entry Cc1cccc(NC(=O)CSCC(=O)N2CCN(c3cccc(C(F)(F)F)c3)CC2)c1 : -21.8

Value of measured hERG current change (%, negative = inhibition) at 10uM for the entry CCCOc1ccc(C2c3c(oc4cc(C)c(C)cc4c3=O)C(=O)N2CCCN(C)C)cc1OCC (stereo not drawn) : 7.65

Value of measured hERG current change (%, negative = inhibition) at 10uM for the entry C=CCNC(=O)CSc1nnc(-c2cccs2)o1 : -0.265

Value of measured hERG current change (%, negative = inhibition) at 10uM for the entry Cc1ccc(S(=O)(=O)N2CCN(S(=O)(=O)N3CCOCC3)CC2)cc1 : 13.4

Value of measured hERG current change (%, negative = inhibition) at 10uM for the entry CNC1=C([N+](=O)[O-])CC([N+](=O)[O-])=C(N2CCNCC2)N1C : 8.57

Value of measured hERG current change (%, negative = inhibition) at 10uM for the entry CCn1c2ccccc2c2cc(CC(N)=O)ccc21 : 5.3

Value of measured hERG current change (%, negative = inhibition) at 10uM for the entry COc1ccc(CC(=O)NCCS(=O)(=O)N2CCN(c3ccccc3OC)CC2)cc1 : -17.1

Value of measured hERG current change (%, negative = inhibition) at 10uM for the entry CC(=O)NNC(=O)c1csc(Cc2c(Cl)sc3ccc(Cl)cc23)n1 : -19.6

Next, consider the following compound.
Value of measured hERG current change (%, negative = inhibition) at 10uM for the entry CC1(C)CC(=O)C2=C(C1)OC1=C(C(=O)CC(C)(C)C1)C2c1ccc(O)c([N+](=O)[O-])c1 : 14
